Target: Endoribonuclease Dicer (Homo sapiens)
Experiment: Dicer cleavage of pre-miR-21 blockers – biochemical, cat-ELCCA, chemiluminescence, primary screen (AID 1347074);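 further: plate controls were vehicle for no effect and no enzyme for full effect; higher signal means more uncleaved substrate so more Dicer inhibition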
Settings: cat-ELCCA pre-miR-21 Dicer processing, at 25 µM
Hit rate of the full screen: of about 47,000 compounds, about 2,800 (6%) were called active. No stated cut-off is given here; in the data, active means z-score above about 3 (passing the limit was not always enough); inactive means the rest. The list comes from a sample in which actives are over-represented; it also holds close analogues and randomly drawn compounds.
The categories you may choose from are active, inactive

Here are 6 compounds together with their reported answers.
> print(dat)
                                   compound  class.name
1  O=C1CCCC2=C1C(c1ccc([N+](=O)[O-])o1)Nc1ccc(C(=O)c3ccccc3)cc1N2 (stereo not drawn)      active
2  O=C1CC(c2ccccc2)Cc2nc(N3CCN(Cc4ccc5c(c4)OCO5)CC3)ncc21 (stereo not drawn)    inactive
3  C=CCSc1nc(Nc2ccc(Cl)cc2)c2cnc(N3CCOCC3)nc2n1    inactive
4  COc1ccc(-c2oc3ncnc(NCCCO)c3c2-c2ccc(OC)cc2)cc1    inactive
5  Cc1ccc(-c2ccc3c4ccccc4c(C(=O)C(F)(F)F)c-3o2)cc1    inactive
6  CC1=C(C(=O)OCc2ccccc2)C(c2ccc(O)cc2)C2=C(CCCC2=O)N1 (stereo not drawn)    inactive

How was CC1=C(C(=O)OCC2CCCO2)C(c2ccc(-c3ccccc3)cc2)C2=C(CCCC2=O)N1 (stereo not drawn) classified in this test?
inactive

Also "CCCCSc1nnc2c(n1)OC=Nc1ccc(Br)cc1-2" , if possible.
inactive

Note, next up: "O=C(c1cccs1)N1CCN(Cc2ccc3c(c2)OCO3)CC1"
inactive

Can you handle "COc1ccc(-c2c(-c3ccccc3)oc3ncnc(N)c23)cc1" next?
active

Then this compound: "O=S(=O)(c1cccc(-c2cn3cccnc3n2)c1)N1CCCC1"
inactive

Try "c1ccc(-c2oc3ncn4nc(-c5ccccn5)nc4c3c2-c2ccccc2)cc1" next.
inactive

How about "O=S(=O)(c1ccc(Cl)cc1)N1CCN(c2cc(C(F)(F)F)nc3ccccc23)CC1" ?
inactive

----------
Biological target: Endoribonuclease Dicer (Homo sapiens) (UniProt Q9UPY3)
Sequence (Q9UPY3 whole entry, looked up): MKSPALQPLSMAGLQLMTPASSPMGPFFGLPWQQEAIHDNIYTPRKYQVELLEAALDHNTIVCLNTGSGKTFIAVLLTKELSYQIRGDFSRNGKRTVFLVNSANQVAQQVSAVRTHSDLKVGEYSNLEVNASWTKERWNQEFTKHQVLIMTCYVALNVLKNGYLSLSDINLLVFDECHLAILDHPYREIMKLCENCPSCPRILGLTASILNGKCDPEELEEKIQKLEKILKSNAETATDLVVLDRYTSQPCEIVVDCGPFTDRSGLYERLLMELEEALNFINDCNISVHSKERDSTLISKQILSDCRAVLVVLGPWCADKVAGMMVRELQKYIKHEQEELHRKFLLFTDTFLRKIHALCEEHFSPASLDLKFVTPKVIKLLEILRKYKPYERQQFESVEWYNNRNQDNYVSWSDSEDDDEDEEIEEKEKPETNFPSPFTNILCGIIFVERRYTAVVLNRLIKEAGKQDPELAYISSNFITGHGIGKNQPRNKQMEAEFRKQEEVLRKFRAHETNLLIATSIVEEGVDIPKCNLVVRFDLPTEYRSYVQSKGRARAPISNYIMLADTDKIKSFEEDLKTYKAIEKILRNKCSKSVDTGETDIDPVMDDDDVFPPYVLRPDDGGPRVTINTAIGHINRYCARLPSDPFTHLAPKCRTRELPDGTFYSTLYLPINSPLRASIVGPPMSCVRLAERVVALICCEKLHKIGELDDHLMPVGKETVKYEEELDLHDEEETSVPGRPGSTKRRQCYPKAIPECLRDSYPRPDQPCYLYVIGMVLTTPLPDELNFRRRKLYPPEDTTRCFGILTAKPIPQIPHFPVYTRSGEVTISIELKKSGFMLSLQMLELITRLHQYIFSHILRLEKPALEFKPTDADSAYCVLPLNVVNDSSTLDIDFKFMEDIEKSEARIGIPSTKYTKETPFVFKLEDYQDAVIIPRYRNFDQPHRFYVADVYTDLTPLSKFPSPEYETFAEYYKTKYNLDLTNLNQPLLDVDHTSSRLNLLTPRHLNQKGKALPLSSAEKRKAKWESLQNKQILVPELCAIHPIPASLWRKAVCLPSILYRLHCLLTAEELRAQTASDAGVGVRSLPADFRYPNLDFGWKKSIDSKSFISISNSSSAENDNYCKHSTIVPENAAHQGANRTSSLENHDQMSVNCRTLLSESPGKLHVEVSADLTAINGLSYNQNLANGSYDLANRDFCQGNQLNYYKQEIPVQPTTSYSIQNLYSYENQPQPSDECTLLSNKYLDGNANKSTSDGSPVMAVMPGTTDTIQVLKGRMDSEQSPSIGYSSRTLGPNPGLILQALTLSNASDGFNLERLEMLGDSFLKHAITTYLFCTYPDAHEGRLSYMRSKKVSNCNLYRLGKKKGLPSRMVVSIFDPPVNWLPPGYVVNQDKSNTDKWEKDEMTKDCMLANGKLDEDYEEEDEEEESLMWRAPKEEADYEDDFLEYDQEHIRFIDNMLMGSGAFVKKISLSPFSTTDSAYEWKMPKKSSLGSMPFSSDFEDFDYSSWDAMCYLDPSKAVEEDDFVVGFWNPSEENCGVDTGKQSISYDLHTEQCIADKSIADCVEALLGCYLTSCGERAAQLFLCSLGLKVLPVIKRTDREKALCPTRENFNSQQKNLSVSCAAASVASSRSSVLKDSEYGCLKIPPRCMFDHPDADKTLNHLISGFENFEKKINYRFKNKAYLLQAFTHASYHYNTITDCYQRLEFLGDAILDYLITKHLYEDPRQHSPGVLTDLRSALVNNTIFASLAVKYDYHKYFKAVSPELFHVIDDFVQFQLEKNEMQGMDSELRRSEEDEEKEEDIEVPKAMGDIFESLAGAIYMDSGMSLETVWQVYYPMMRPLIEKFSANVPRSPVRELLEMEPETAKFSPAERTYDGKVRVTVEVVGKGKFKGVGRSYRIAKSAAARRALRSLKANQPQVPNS
Assay: Dicer cleavage of pre-miR-21 blockers – biochemical, cat-ELCCA, chemiluminescence, primary screen (AID 1347074);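 further: plate controls were vehicle for no effect and no enzyme for full effect; higher signal means more uncleaved substrate so more Dicer inhibition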
Conditions: cat-ELCCA pre-miR-21 Dicer processing, at 25 µM, hits give high values
Hit rate of the full screen: of about 47,000 compounds, about 2,800 (6%) were called active. Many of the other results were omitted from the sample, so actives are more common in it than they were.
If the reported z-score equals or exceeds 0.9, assign true (1). If not, assign false (0).

> print(dat)
                                   molecule  class.name
1  Cc1ccc(N2C(=O)c3oc4cc(C)c(C)cc4c(=O)c3C2c2ccc(O)cc2)nc1 (configuration not stated)   false (0)
2  Cn1nc(Oc2nc(N3CCCCC3)nc(N3CCCCC3)n2)ccc1=O    true (1)
3                O=C1Nc2ccccc2C12NNC(=S)NN2    true (1)
4                   CNNC(=S)Nc1ccc(F)c(C)c1    true (1)

Could you verify whether the entry O=C1c2oc3ccccc3c(=O)c2C(c2cccc(O)c2)N1Cc1ccccc1 (configuration not stated) shows z-score of no less than 0.9?
false (0)

Another molecule to check: "Cc1ccc(-c2cn3cc(C)ccc3n2)cc1"
false (0)

Do the same for "COc1ccc(-c2cn3ccc(C)cc3n2)cc1F" please
true (1)

Next: "C1=C(c2cccs2)CC(c2cccs2)=NN=C1c1cccs1"
true (1)

And "C/C(=N\OC(=O)c1ccc(Cl)cc1)c1nnn(-c2cc(C(F)(F)F)cc(C(F)(F)F)c2)c1C" ?
false (0)

Request: O=C(O)C1CC(=O)N(c2cccc(Cl)c2)C1 (configuration not stated)
true (1)

Can you check "Cc1cc(C)c2c(n1)sc1c(=O)n(C)cnc12" next?
true (1)
